- Test system: KRAS G12V dependent lung adenocarcinoma cell line, NCI-H441
- Assay protocol: Cellular pERK (Thr202/Tyr204) FRET/HTRF assay
- Format: cell-based
- Study conditions: Homo sapiens, NCI-H441, pERK HTRF, NCI-H441 cells (KRAS G12V)
pIC50: −log10 of the molar value.
Readout: pIC50

Query: Find the measured pIC50 of [2H]C([2H])(F)Oc1c(F)ccc2cccc(-c3ncc4c(N5CCOC[C@H]6[C@H](F)[C@H]65)nc(OC([2H])([2H])[C@@]56CCCN5C[C@H](F)C6)nc4c3F)c12 and report it.
Response: > 7.30

Query: Find the measured pIC50 of [2H]C([2H])(Oc1nc(N2CCO[C@H]3C[C@H]32)c2cnc(-c3cc(N)cc4cc(F)c(F)c(C#C)c34)c(F)c2n1)[C@@]12CCCN1C[C@H](F)C2 and report it.
Response: 6.30 to 7.30

Query: Find the measured pIC50 of [2H]C([2H])(Oc1nc(N2CCCCC[C@H]3[C@H](F)[C@H]32)c2cnc(-c3cc(N)cc4cc(F)c(F)c(C#C)c34)c(F)c2n1)[C@@]12CCCN1C[C@H](F)C2 and report it.
Response: > 7.30

Query: Find the measured pIC50 of [2H]C([2H])(Oc1nc(N2CCCC[C@H]3[C@H](F)[C@H]32)c2cnc(-c3cncc4ccc(F)c(Cl)c34)c(F)c2n1)[C@@]12CCCN1C[C@H](F)C2 and report it.
Response: 6.30 to 7.30

Query: Find the measured pIC50 of [2H]C([2H])([2H])Oc1c(F)ccc2cc(N)cc(-c3ncc4c(N5CCCO[C@H]6[C@H](F)[C@H]65)nc(OC([2H])([2H])[C@@]56CCCN5C[C@H](F)C6)nc4c3F)c12 and report it.
Response: > 7.30

Query: Find the measured pIC50 of [2H]C([2H])(Oc1nc(N2CCOC[C@@H]3[C@H](F)[C@@H]32)c2cnc(-c3cc(N)cc4cc(F)c(F)c(C#C)c34)c(F)c2n1)[C@@]12CCCN1C[C@H](F)C2 and report it.
Response: 6.30 to 7.30

Query: Find the measured pIC50 of [2H]C([2H])(Oc1nc(N2CCCO[C@H]3C[C@H]32)c2cnc(-c3cc(O)cc4ccc(F)c(C#C)c34)c(F)c2n1)[C@@]12CCCN1C[C@H](F)C2 and report it.
Response: > 7.30

###

- System: KRAS G12V dependent lung adenocarcinoma cell line, NCI-H441
- Assay protocol: Cellular pERK (Thr202/Tyr204) FRET/HTRF assay
- Assay type: cell-based
- Study conditions: Homo sapiens, NCI-H441, cellular pERK (Thr202/Tyr204) HTRF, NCI-H441 cells
Readout: IC50

Field: example entries. Status: answers known.
Smiles text: [2H]C([2H])([2H])Oc1c(F)c(F)c(F)c2cccc(-c3ncc4c(N5CCCC[C@H]6[C@H](F)[C@H]65)nc(OC([2H])([2H])[C@@]56CCCN5C[C@H](F)C6)nc4c3F)c12
Readout: IC50
Measurement: 500 to 10000 nM

Smiles text: C#Cc1c(F)ccc2cc(N)cc(-c3ncc4c(N5CCOC[C@H]6[C@H](F)[C@H]65)nc(OC[C@]56C/C(=C\F)CN5CCC65CC5)nc4c3C)c12
Readout: IC50
Measurement: < 50 nM

Smiles text: [2H]C([2H])(Oc1nc(N2CCOC[C@H]3[C@H](F)[C@H]32)c2cnc(-c3cc(N)c(F)c(Cl)c3C(F)(F)F)c(F)c2n1)[C@@]12CCCN1C[C@H](F)C2
Readout: IC50
Measurement: < 50 nM

Query: Find the measured IC50 of C#Cc1c(F)ccc2cc(N)cc(-c3ncc4c(N5CCOC[C@@H]6[C@@H](Cl)[C@@H]65)nc(OC[C@@H]5CCCN5C)nc4c3F)c12 and report it.
Response: 50 to 500 nM

Query: Find the measured IC50 of C#Cc1c(F)ccc2cc(O)cc(-c3ncc4c(N5CCOC[C@H]6[C@H](F)[C@H]65)nc(OC[C@H]5CCCN5C)nc4c3F)c12 and report it.
Response: < 50 nM

###

- Test system: KRAS G12V dependent lung adenocarcinoma cell line, NCI-H441
- Assay protocol: Cellular pERK (Thr202/Tyr204) FRET/HTRF assay
- Format: cell-based
- Study conditions: Homo sapiens, NCI-H441, cellular pERK (Thr202/Tyr204) HTRF, NCI-H441 cells
pIC50: −log10 of the molar value.
Item-by-item account of pIC50

Field: example entries. Status: answers known.
Compound: [2H]C([2H])(Oc1nc(N2CCCC[C@@H]3[C@H](Cl)[C@@H]32)c2cnc(-c3cc(N)cc4ccc(F)c(C#C)c34)c(F)c2n1)[C@@]12CCCN1C[C@H](F)C2 [Example 343]
Measurement: 5.00 to 6.30
--
Compound: [2H]C([2H])(Oc1nc(N2CCOC[C@H]3[C@H](F)[C@H]32)c2cnc(-c3cc(N)c(F)cc3C(F)(F)F)c(F)c2n1)[C@@]12CCCN1C[C@H](F)C2 [Example 299]
Measurement: 6.30 to 7.30
--
Compound: [2H]C([2H])(Oc1nc(N2CCOC[C@H]3[C@H](F)[C@H]32)c2cnc(-c3nc(N)cc4ccc(F)c(Cl)c34)c(F)c2n1)[C@@]12CCCN1C[C@H](F)C2 [Example 152]
Measurement: 6.30 to 7.30
--
Compound: [2H]C([2H])(Oc1nc(N2CCOC[C@H]3[C@H](F)[C@H]32)c2c(F)nc(-c3cc(N)cc4ccc(F)c(C#C)c34)c(F)c2n1)[C@@]12CCCN1C[C@H](F)C2 [Example 303]
Measurement: > 7.30

// next item, pIC50 requested
Query: Find the measured pIC50 of C#Cc1c(F)ccc2cc(N)cc(-c3ncc4c(N5CCOC[C@H]6[C@H](F)[C@H]65)nc(OC[C@@]56CCCN5C[C@]5(CC5(F)F)C6)nc4c3F)c12 (single isomer, unassigned) [Example 210] and report it.
Response: > 7.30

###

- System: KRAS G12V dependent lung adenocarcinoma cell line, NCI-H441
- Assay protocol: Cellular pERK (Thr202/Tyr204) FRET/HTRF assay
- Type: cell-based
- Study conditions: Homo sapiens, NCI-H441, cellular pERK (Thr202/Tyr204) HTRF, NCI-H441 cells
Item-by-item account of IC50

Query: Find the measured IC50 of [2H]C([2H])(Oc1nc(N2CCOC[C@H]3[C@H](F)[C@H]32)c2cnc(-c3cc(O)cc4ccc(F)c(C#C)c34)c(F)c2n1)[C@@]12CCCN1C[C@H](F)C2 and report it.
Response: < 50 nM

Query: Find the measured IC50 of C#Cc1c(F)ccc2cc(N)cc(-c3ncc4c(N5CCOC[C@H]6[C@H](F)[C@H]65)nc(OC[C@]56C/C(=C/F)CN5CCC65CC5)nc4c3F)c12 and report it.
Response: < 50 nM

Query: Find the measured IC50 of [2H]C([2H])(F)Oc1c(F)ccc2cccc(-c3ncc4c(N5CCOC[C@H]6[C@H](F)[C@H]65)nc(OC[C@@]56CCCN5CC(=C)C6)nc4c3F)c12 and report it.
Response: < 50 nM

Query: Find the measured IC50 of C#Cc1c(F)ccc2cc(N)cc(-c3ncc4c(N5CCCC[C@H]6[C@H](F)[C@H]65)nc(OC[C@]56C/C(=C/F)CN5CCC65CC5)nc4c3F)c12 and report it.
Response: < 50 nM

Query: Find the measured IC50 of C#Cc1c(F)ccc2cccc(-c3ncc4c(N5CCOC[C@H]6[C@H](F)[C@H]65)nc(OC[C@]56C[C@@H](F)CN5C[C@@H](CNC(C)=O)C6)nc4c3F)c12 and report it.
Response: 50 to 500 nM

Query: Find the measured IC50 of [2H]C([2H])(Oc1nc(N2CC[C@@H](C#N)C[C@H]3[C@H](F)[C@H]32)c2cnc(-c3cc(N)cc4ccc(F)c(C#C)c34)c(F)c2n1)[C@@]12CCCN1C[C@H](F)C2 and report it.
Response: < 50 nM

Query: Find the measured IC50 of C#Cc1c(F)ccc2cc(O)cc(-c3ncc4c(N5CCCO[C@H]6C[C@H]65)nc(OC[C@@]5(C)CCCN5C)nc4c3F)c12 and report it.
Response: < 50 nM

###

Item-by-item account of IC50
- Tested on: KRAS G12V dependent lung adenocarcinoma cell line, NCI-H441
- Assay protocol: Cellular pERK (Thr202/Tyr204) FRET/HTRF assay
- Format: cell-based
- Study conditions: Homo sapiens, NCI-H441, cellular pERK (Thr202/Tyr204) HTRF, NCI-H441 cells
- Experimental: “Ras” refers to a protein in the Ras superfamily of small GTPases, such as in the Ras subfamily. […] The Ras proteins play a critical role in the regulation of cell behaviors, including proliferation, differentiation, and survival. […] pERK was measured using an advanced pERK assay designed for the robust and highly sensitive quantification of ERK phosphorylation on Thr202/Tyr204. […] The simple mix-and-read protocol eliminates all wash steps for faster analysis and high-quality output. […]

Field: example entries. Status: answers known.
Smiles text: [2H]C([2H])(Oc1nc(N2CCOC[C@H]3[C@H](F)[C@H]32)c2cnc(-c3cc(N)cc4ccc(F)c(C#C)c34)c(F)c2n1)[C@@]12CCCN1C[C@H](C#N)C2
Test target: KRAS G12V dependent lung adenocarcinoma cell line, NCI-H441
Measurement: < 50 nM
//
Smiles text: [2H]C([2H])(Oc1nc(N2CCOC[C@H]3[C@H](F)[C@H]32)c2cnc(-c3cc(N)cc4c(F)cc(F)c(C#C)c34)c(F)c2n1)[C@@]12CCCN1C[C@H](F)C2
Test target: KRAS G12V dependent lung adenocarcinoma cell line, NCI-H441
Measurement: < 50 nM

// next item, IC50 requested
Query: Find the measured IC50 of [2H]C([2H])(Oc1nc(N2CC[C@H](C#N)C[C@H]3[C@H](F)[C@H]32)c2cnc(-c3cc(N)cc4ccc(F)c(C#C)c34)c(F)c2n1)[C@@]12CCCN1C[C@H](F)C2 and report it.
Response: 50 to 500 nM
